- TESTED_SYSTEM: Voltage-gated inwardly rectifying potassium channel KCNH2 (Homo sapiens, UniProt Q12809)
- Sequence (Q12809 whole entry): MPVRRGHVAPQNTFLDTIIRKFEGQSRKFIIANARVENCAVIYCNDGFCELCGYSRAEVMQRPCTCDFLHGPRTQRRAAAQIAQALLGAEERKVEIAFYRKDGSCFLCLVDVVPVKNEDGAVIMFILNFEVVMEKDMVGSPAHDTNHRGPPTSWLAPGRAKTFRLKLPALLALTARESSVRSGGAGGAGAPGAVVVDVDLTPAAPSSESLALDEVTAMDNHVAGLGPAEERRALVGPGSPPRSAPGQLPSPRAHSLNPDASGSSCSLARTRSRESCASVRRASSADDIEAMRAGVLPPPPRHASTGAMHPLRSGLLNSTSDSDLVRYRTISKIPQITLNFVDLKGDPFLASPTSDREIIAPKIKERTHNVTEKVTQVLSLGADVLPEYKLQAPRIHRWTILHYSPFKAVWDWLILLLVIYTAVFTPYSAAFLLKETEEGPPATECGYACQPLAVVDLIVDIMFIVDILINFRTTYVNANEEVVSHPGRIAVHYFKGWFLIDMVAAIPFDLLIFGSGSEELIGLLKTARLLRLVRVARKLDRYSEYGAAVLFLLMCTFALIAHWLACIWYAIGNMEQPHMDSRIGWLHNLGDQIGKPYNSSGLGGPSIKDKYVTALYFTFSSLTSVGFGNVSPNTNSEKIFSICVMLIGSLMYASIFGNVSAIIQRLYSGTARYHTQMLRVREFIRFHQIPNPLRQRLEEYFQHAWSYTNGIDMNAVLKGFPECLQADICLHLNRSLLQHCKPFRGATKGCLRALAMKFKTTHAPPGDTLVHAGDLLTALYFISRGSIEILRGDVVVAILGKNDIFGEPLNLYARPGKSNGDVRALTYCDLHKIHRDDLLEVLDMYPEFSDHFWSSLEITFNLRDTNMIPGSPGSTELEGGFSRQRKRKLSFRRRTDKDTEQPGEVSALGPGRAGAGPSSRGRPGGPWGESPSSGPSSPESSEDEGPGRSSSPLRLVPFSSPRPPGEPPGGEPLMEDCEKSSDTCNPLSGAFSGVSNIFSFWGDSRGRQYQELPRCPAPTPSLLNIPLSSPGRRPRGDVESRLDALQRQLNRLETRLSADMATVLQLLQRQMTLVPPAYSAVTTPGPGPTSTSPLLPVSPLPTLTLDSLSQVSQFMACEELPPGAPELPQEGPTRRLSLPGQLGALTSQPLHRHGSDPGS
Lab note: anything with IC50 below 10 µM is marked Satisfied; values at 10 µM or higher are marked Not satisfied.

[
  {
    "MOLECULE": "CC(C)(O)Cn1ncc(Nc2ncc3cc(Cl)c(C4CCN(C5COC5)CC4)cc3n2)c1Cl",
    "CATEGORY_LABEL": "Not satisfied"
  },
  {
    "MOLECULE": "F[C@@H]1CNCC[C@H]1c1cc2nc(Nc3cnn([C@@H]4CC4(F)F)c3Cl)ncc2cc1Cl",
    "CATEGORY_LABEL": "Satisfied"
  },
  {
    "MOLECULE": "Cc1c(Nc2ncc3cc(Cl)c(C4CCN([C@@H]5COC[C@@H]5O)CC4)cc3n2)cnn1[C@@H]1CC1(F)F",
    "CATEGORY_LABEL": "Satisfied"
  },
  {
    "MOLECULE": "FC1CN(C2COCC2F)CCC1c1cc2nc(Nc3cnn(C4CC4(F)F)c3Cl)ncc2cc1Cl (stereo unspecified)",
    "CATEGORY_LABEL": "Satisfied"
  },
  {
    "MOLECULE": "FC1CN(C2COC2)CCC1c1cc2nc(Nc3cnn(C4CC4(F)F)c3Cl)ncc2cc1Cl (stereo unspecified)",
    "CATEGORY_LABEL": "Not satisfied"
  },
  {
    "MOLECULE": "O[C@H]1COC[C@H]1N1CC[C@@H](c2cc3nc(Nc4cnn([C@@H]5CC5(F)F)c4Cl)ncc3cc2Cl)[C@H](F)C1",
    "CATEGORY_LABEL": "Satisfied"
  },
  {
    "MOLECULE": "FC1CN(C2CCOC2)CCC1c1cc2nc(Nc3cnn(C4CC4(F)F)c3Cl)ncc2cc1Cl (stereo unspecified)",
    "CATEGORY_LABEL": "Not satisfied"
  },
  {
    "MOLECULE": "Clc1cc2cnc(Nc3cnn(C4CC4)c3Cl)nc2cc1C1CCN(C2COC2)CC1",
    "CATEGORY_LABEL": "Satisfied"
  },
  {
    "MOLECULE": "Cc1c(Nc2ncc3cc(Cl)c(C4CCN(C5COC5)CC4)cc3n2)cnn1C1CC1",
    "CATEGORY_LABEL": "Not satisfied"
  },
  {
    "MOLECULE": "Clc1cc2cnc(Nc3cnn(C4CC4)c3Cl)nc2cc1N1CCN(C2COC2)CC1",
    "CATEGORY_LABEL": "Not satisfied"
  },
  {
    "MOLECULE": "FC1CN(C2COC2)CCC1c1cc2nc(Nc3cnn(C4CC4)c3Cl)ncc2cc1Cl (stereo unspecified)",
    "CATEGORY_LABEL": "Not satisfied"
  }
]

The reported numbers originate from ChEMBL document CHEMBL5042510.
